B1: glmS ribozyme (parent)
chain: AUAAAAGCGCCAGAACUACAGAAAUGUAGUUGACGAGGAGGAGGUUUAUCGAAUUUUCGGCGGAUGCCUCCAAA

variants of: B1; assay: self-cleavage kobs at 640 uM GlcN6P; higher = faster cleavage; RNA array; conditions: with glucosamine-6-phosphate
This sample holds only a part of the variants without activity.
recorded_endpoint: self-cleavage kobs at 640 uM GlcN6P

Incoming: Quick check: self-cleavage kobs at 640 uM GlcN6P of AUAAAAGCGCCAGAACUACAGAAAUGUAGUUUACGAGGAGGAGGAUUAUCGAAUUUUCGGCGGAUGCCUCCAAA [G32U U45A] ?
Outgoing: 0.000279 s⁻¹

Incoming: Quick check: self-cleavage kobs at 640 uM GlcN6P of AUAAAAGCGCCAGAACUACAGAAAUGUAGUUGACGAGGAGGAGGUUUAUCGAUAUAUCGGCGGAUGCCUGCAAA [A53U U54A U56A C70G] ?
Outgoing: 0.000134 s⁻¹
